Test system: Puccinia triticina
Experiment: Wheat Brown Rust fungicidal activity (PUCCRT)
Assay type: in vivo
Conditions: Puccinia triticina, 72 h, 3 Day Curative, rate 100 ppm, read-out: Disease control PUCCRT 3DC
Method: Technical grades of materials were dissolved in acetone, which were then mixed with nine volumes of water containing 110 ppm Triton X-100. The fungicide solutions were applied onto wheat seedlings using an automated booth sprayer to run-off. […] All fungicides were evaluated using the aforementioned method for their activity vs. all target diseases. […] Percent disease control was calculated using the ratio of disease severity on treated plants relative to untreated plants. […]
pest or weed control at 100 ppm overview

Here is how some compounds turned out for pest or weed control at 100 ppm.
COc1ccnc(C(=O)N[C@H]2COC[C@H](CC3CCCC3)[C@@H](OC(=O)C(C)C)[C@H](C)OC2=O)c1OCOC(C)=O | 80 to 100%
COc1ccnc(C(=O)N[C@H]2COC[C@H](Cc3ccc(C)cc3)[C@@H](Oc3ccccc3)[C@H](C)OC2=O)c1O | 0 to 80%
CCCCCO[C@@H]1[C@@H](Cc2ccc(C)cc2)COC[C@H](NC(=O)c2nccc(OC)c2OC(C)=O)C(=O)O[C@H]1C | 80 to 100%
COc1ccnc(C(=O)N[C@H]2COC[C@H](CCC(C)C)[C@@H](OCCCC(F)(F)F)[C@H](C)OC2=O)c1OCOC(C)=O | 80 to 100%
CCCCCO[C@@H]1[C@@H](Cc2cccc3ccccc23)COC[C@H](NC(=O)c2nccc(OC)c2OC(C)=O)C(=O)O[C@H]1C | 0 to 80%

Now for a further compound.
Prompt: Kindly indicate its recorded pest or weed control at 100 ppm. Item: COc1ccnc(C(=O)N[C@H]2COC[C@H](CCc3ccccc3)[C@@H](OC3CCCC3)[C@H](C)OC2=O)c1OCOC(C)=O
Response: 80 to 100%

----------
melting point overview

COc1ccnc(C(=O)N[C@H]2COC[C@H](Cc3ccc(Cl)cc3Cl)[C@@H](OC(=O)C(C)C)[C@H](C)OC2=O)c1OCOC(C)=O | 62 to 66 °C
C[C@@H]1OC(=O)[C@@H](N(C(=O)OC(C)(C)C)C(=O)OC(C)(C)C)COC[C@H](Cc2ccc(F)cc2)[C@H]1OC(=O)C1CC1 | 131 to 133 °C
COc1ccnc(C(=O)N[C@H]2COC[C@H](Cc3cccc4ccccc34)[C@@H](Oc3ccc(C)cc3)[C@H](C)OC2=O)c1OCOC(C)=O | 83 to 88 °C
CCCCCO[C@@H]1[C@@H](Cc2ccc(Cl)cc2Cl)COC[C@H](NC(=O)c2nccc(OC)c2OC(C)=O)C(=O)O[C@H]1C | 55 to 59 °C
Cc1ccc(C[C@H]2COC[C@H](N)C(=O)O[C@@H](C)[C@@H]2OCC(C)C)cc1.Cl | 81 to 84 °C

Prompt: Kindly indicate its recorded melting point. Item: COc1ccnc(C(=O)N[C@H]2COC[C@H](Cc3ccc(Cl)cc3Cl)[C@@H](OCC(C)C)[C@H](C)OC2=O)c1O
Response: 60 to 64 °C

Prompt: Kindly indicate its recorded melting point. Item: COc1ccnc(C(=O)N[C@H]2COC[C@H](Cc3cccc4ccccc34)[C@@H](OC3CCCC3)[C@H](C)OC2=O)c1O
Response: 78 to 85 °C

Prompt: Kindly indicate its recorded melting point. Item: COc1ccnc(C(=O)N[C@H]2COC[C@H](Cc3ccc(C)cc3)[C@@H](OC(=O)C(C)C)[C@H](C)OC2=O)c1O
Response: 67 to 72 °C

Prompt: Kindly indicate its recorded melting point. Item: CCCCCO[C@@H]1[C@@H](Cc2cccc3ccccc23)COC[C@H](NC(=O)c2nccc(OC)c2O)C(=O)O[C@H]1C
Response: 116 to 120 °C

Prompt: Kindly indicate its recorded melting point. Item: C[C@@H]1OC(=O)[C@@H](N(C(=O)OC(C)(C)C)C(=O)OC(C)(C)C)COC[C@H](Cc2cccc3ccccc23)[C@H]1OC1CCCC1
Response: 49 to 55 °C

Prompt: Kindly indicate its recorded melting point. Item: COc1ccnc(C(=O)N[C@H]2COC[C@H](Cc3cccc4ccccc34)[C@@H](OC(=O)C(C)C)[C@H](C)OC2=O)c1OCOC(C)=O
Response: 58 to 64 °C

Prompt: Kindly indicate its recorded melting point. Item: CCCCCO[C@@H]1[C@@H](Cc2cccc3ccccc23)COC[C@H](NC(=O)c2nccc(OC)c2OC(C)=O)C(=O)O[C@H]1C
Response: 85 to 91 °C

Prompt: Kindly indicate its recorded melting point. Item: COc1ccnc(C(=O)N[C@H]2COC[C@H](Cc3cccc4ccccc34)[C@@H](OC(=O)C(C)C)[C@H](C)OC2=O)c1O
Response: 139 to 142 °C

Data origin: patent US9179674B2
